assay_details: qHTS assay to identify small molecule antagonists of the thyroid receptor (TR) signaling pathway (AID 743065); also: nearly all actives have a fitted effect of over 55% in size
condition_info: GH3.TRE-Luc, T3-stimulated luciferase inhibition, 23.5 h; series mostly up to 70.3 µM
Records with an inconclusive call do not appear. Active and inactive are the calls of the source. Calls follow the shape of the dose curve; as a rule, active = well fitted inhibition curve with a large enough effect in the repeat runs; inconclusive = weak or mixed curves; inactive = no such curve, though single readings can be large or run the other way.
Classes used: 1.0 = active, 0.0 = inactive

COc1cc2[nH]c(=O)[nH]c(=O)c2cc1OC : 0.0
CCOC(=O)CC(=O)C(=O)OCC : 0.0
CCCOCCOCCO : 0.0
CCCCC1C(=O)N(c2ccccc2)N(c2ccc(O)cc2)C1=O (stereo not drawn) : 1.0
CN(C)CCOC1=Cc2ccccc2Sc2ccc(Cl)cc21 : 1.0
Cc1c(C(=O)NN2CCCCC2)nn(-c2ccc(Cl)cc2Cl)c1-c1ccc(Cl)cc1 : 1.0
O=[N+]([O-])c1cccc(S(=O)(=O)NCCNS(=O)(=O)c2cccc([N+](=O)[O-])c2)c1 : 0.0
CC(C)CCCCCOC(=O)CCCCC(=O)OCCCCCC(C)C : 0.0
COCCOC : 0.0
CCC(C)(O)CCC=C(C)C (stereo not drawn) : 0.0
CC(C)(C)C(=O)O : 0.0
CCN(CC)CCNC(=O)c1ccc(NC(C)=O)cc1 : 0.0
Nc1ccc(S(=O)(=O)O)c(N)c1 : 0.0

====

assay_details: A CellTox Green Cytotoxicity Assay to monitor cytotoxicity in HepG2 cells - 40 hour (AID 1224879); also: nearly all actives have a fitted effect of over 40% in size
condition_info: CellTox Green fluorescence; series mostly up to 76.8 µM
Inconclusive results are not listed. Activity calls are given as the source filed them. Calls come from the whole dose curve; as a rule, active = well fitted activation curve with a large enough effect in the repeat runs; inconclusive = weak or mixed curves; inactive = flat fitted curve, though single readings scatter.
Classes used: active, inactive

O=C(O)Cc1ccc(-c2ccccc2)cc1 : inactive
C1COCO1 : inactive
NCC1CCCC(CN)C1 (centres undefined) : inactive
CC1C2CC(CC2C2CCCC(O)C2)C1(C)C (centres undefined) : active
Cc1cc2nc3ccc(=[N+](C)C)cc-3sc2cc1N : inactive
CC(C)CCCCCCOC(=O)CCCCC(=O)OCCCCCCC(C)C : inactive
CN1C(=O)CC(C)(c2ccccc2)C1=O (centres undefined) : inactive
O=C(O)c1snc(Cl)c1Cl : inactive
CCCOCCOCCO : inactive
O=C(CCCN1CCN(c2ccc(F)cc2)CC1)NC1c2ccccc2CSc2ccccc21 (centres undefined) : active
COc1cc2[nH]c(=O)[nH]c(=O)c2cc1OC : inactive
CN1Cc2cc(C(=O)N3CCC(C4CCNCC4)CC3)ccc2N[C@@H](CC(=O)O)C1=O : inactive
CCCCC/C(=C\c1ccccc1)CO : inactive
ON(Cc1ccccc1)Cc1ccccc1 : inactive
C=CCOC(=O)/C=C\C(=O)OCC=C : inactive
Cc1nc2ccccn2c(=O)c1CCN1CCC(C(=O)c2ccc(F)cc2)CC1 : inactive
CO[C@H]1C=CO[C@@]2(C)Oc3c(C)c(O)c4c(O)c(c5c(c4c3C2=O)=NC2(CCN(CC(C)C)CC2)N=5)NC(=O)/C(C)=C\C=C/[C@H](C)[C@H](O)[C@@H](C)[C@@H](O)[C@@H](C)[C@H](OC(C)=O)[C@@H]1C : active
CCCCCCCCSCCO : active
CO[C@H]1O[C@H](CO)[C@@H](O)[C@H](O)[C@H]1O : inactive
Cn1c(=O)c2c(ncn2CC(=O)O)n(C)c1=O : inactive
CC1(C)O[C@@H]2C[C@H]3[C@@H]4CCC5=CC(=O)C=C[C@]5(C)[C@H]4[C@@H](O)C[C@]3(C)[C@]2(C(=O)CO)O1 : inactive
COc1cc2c(cc1OC)-c1cc(=Nc3c(C)cc(C)cc3C)n(C)c(=O)n1CC2 : active
OC(CCCN1CCCCC1)(c1ccccc1)c1ccccc1 : inactive
C=CC(=C)CCCC(C)(C)OC(C)=O : inactive
O=C1NCCN1 : inactive
CC[C@@H]([C@H](C)O)n1ncn(-c2ccc(N3CCN(c4ccc(OC[C@@H]5CO[C@@](Cn6cncn6)(c6ccc(F)cc6F)C5)cc4)CC3)cc2)c1=O : inactive
CC(CCc1ccc2c(c1)OCO2)NN (centres undefined) : inactive
C[N+](C)(C)CCOC(N)=O : inactive
NC(=O)Cn1c(=O)cc(CCN2CCN(c3nccc4sccc34)CC2)c2ccc(F)cc21 : inactive
C=CCNc1nc(NCC=C)nc(N2CCN(C(c3ccc(F)cc3)c3ccc(F)cc3)CC2)n1 : inactive
Cc1cc(O)c(C(C)C)cc1Cl : active
O=C(CCCCCCC(=O)Nc1ccccc1)NO : active
CC(=O)Nc1ccc(N)cc1 : inactive
CNC(=S)NC : active
CCCCCCOC(=O)CCCCCCCC(=O)OCCCCCC : inactive
N#C/C(=C1/SC[C@@H](c2ccc(Cl)cc2Cl)S1)n1ccnc1 : inactive
CC(COc1ccc(C(C)(C)C)cc1)OS(=O)OCCCl (centres undefined) : inactive
O=C(/C=C/c1ccccc1)OCCCc1ccccc1 : inactive
O=Cc1c(Cl)cccc1Cl : inactive
CCCCC(=O)O[C@]1(C(=O)CO)CC[C@H]2[C@@H]3CCC4=CC(=O)CC[C@]4(C)[C@H]3[C@@H](O)C[C@@]21C : inactive
CC(C)(C)C(=O)C(Oc1ccc(Cl)cc1)n1ccnc1 (centres undefined) : inactive
O=C(CCCCCCCCC#CI)Oc1ccccc1 : inactive
CCNC(=O)N1CCN(CCCC(c2ccc(F)cc2)c2ccc(F)cc2)CC1 : active
CC(=O)[C@H]1CC[C@H]2[C@@H]3C[C@H](C)C4=CC(=O)CC[C@]4(C)[C@H]3[C@@H](O)C[C@]12C : inactive
CNCCCC1c2ccccc2C=Cc2ccccc21 : active
C/C=C(\C)C(=O)OCCC(C)CCC=C(C)C (centres undefined) : inactive
CCC(C(=O)OCCN(CC)CC)c1ccccc1 (centres undefined) : inactive
C[C@@H]1C[C@H]2[C@@H]3CCC4=CC(=O)C=C[C@]4(C)[C@@]3(F)[C@@H](O)C[C@]2(C)[C@@]1(O)C(=O)CO : inactive
CCC(=O)OC/C=C/c1ccccc1 : inactive

====

assay_details: qHTS assay to identify small molecule antagonists of the peroxisome proliferator-activated receptor delta (PPARd) signaling pathway - cell viability counter screen (AID 743213); also: nearly all actives have a fitted effect of over 50% in size
condition_info: PPARd-bla HEK293H viability, CellTiter-Glo luminescence, 17 h; series mostly up to 62 µM
Records with an inconclusive call do not appear. The source made the active and inactive calls. The call rests on the fitted dose curve; in most records, active means well fitted cell-killing curve with a large enough effect in the repeat runs; inconclusive means weak or mixed curves; inactive means no such curve, though single readings can be large or run the other way.
Classes used: active, inactive

NC(=O)N(O)[C@@H]1C=C[C@H](Oc2cccc(Oc3ccc(F)cc3)c2)C1 : inactive
c1ccc(COCc2ccccc2)cc1 : inactive
Nc1ccc(C(=O)OCCCOC(=O)c2ccc(N)cc2)cc1 : inactive
O=C(O)c1ccc(CO)o1 : inactive
CCCCCCCCSCCO : inactive
O=C(CCCCCCC(=O)Nc1ccccc1)NO : inactive
CO[C@@]12[C@H](COC(N)=O)C3=C(C(=O)C(C)=C(N)C3=O)N1C[C@@H]1N[C@@H]12 : inactive
CNCCCC1c2ccccc2C=Cc2ccccc21 : active
COc1cc2[nH]c(=O)[nH]c(=O)c2cc1OC : inactive
C=CCNc1nc(NCC=C)nc(N2CCN(C(c3ccc(F)cc3)c3ccc(F)cc3)CC2)n1 : inactive
CCCCC1C(=O)N(c2ccccc2)N(c2ccc(O)cc2)C1=O (stereo not drawn) : inactive
CN1C(=O)CC(C)(c2ccccc2)C1=O (stereo not drawn) : inactive
CNC(=S)NC : inactive

====

system_tested: Voltage-gated inwardly rectifying potassium channel KCNH2 (Homo sapiens) (UniProt Q12809)
Sequence (Q12809 whole entry, looked up): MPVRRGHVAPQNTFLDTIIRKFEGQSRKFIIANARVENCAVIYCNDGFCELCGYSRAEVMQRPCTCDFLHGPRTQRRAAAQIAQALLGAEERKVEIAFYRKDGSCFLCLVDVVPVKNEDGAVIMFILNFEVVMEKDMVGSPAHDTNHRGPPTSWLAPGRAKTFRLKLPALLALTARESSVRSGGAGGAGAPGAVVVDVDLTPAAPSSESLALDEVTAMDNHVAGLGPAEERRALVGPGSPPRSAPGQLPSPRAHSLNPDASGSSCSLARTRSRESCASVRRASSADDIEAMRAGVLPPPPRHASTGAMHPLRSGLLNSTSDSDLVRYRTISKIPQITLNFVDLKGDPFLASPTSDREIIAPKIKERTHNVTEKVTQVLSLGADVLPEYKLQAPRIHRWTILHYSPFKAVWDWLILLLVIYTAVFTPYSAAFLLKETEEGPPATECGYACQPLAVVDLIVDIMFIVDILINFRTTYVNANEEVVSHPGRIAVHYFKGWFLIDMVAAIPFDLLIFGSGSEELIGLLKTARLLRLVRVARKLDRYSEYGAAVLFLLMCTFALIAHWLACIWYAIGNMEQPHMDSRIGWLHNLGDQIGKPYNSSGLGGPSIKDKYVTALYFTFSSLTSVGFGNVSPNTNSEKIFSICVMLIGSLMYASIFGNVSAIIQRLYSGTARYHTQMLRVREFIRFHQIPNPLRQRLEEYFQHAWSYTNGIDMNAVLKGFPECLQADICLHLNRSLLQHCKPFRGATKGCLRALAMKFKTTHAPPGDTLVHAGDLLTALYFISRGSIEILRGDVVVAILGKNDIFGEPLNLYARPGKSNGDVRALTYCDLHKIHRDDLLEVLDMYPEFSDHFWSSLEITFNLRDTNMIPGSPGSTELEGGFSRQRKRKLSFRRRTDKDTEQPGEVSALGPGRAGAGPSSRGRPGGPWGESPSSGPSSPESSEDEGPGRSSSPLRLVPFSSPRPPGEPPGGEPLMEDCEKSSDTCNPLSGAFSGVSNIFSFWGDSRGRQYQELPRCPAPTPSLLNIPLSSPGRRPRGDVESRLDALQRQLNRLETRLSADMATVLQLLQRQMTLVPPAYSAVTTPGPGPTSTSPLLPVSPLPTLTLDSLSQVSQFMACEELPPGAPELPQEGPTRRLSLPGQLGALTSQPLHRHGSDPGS
assay_details: Human Ether-a-go-go-Related Gene (hERG) channel small molecule antagonists: fluorescence cell-based qHTS assay (AID 1671200); also: nearly all actives have a fitted effect of over 50% in size
condition_info: hERG-U2OS cells, FluxOR thallium flux fluorescence; series mostly up to 76.8 µM
Records with an inconclusive call do not appear. The source made the active and inactive calls. Calls follow the shape of the dose curve; as a rule, active = well fitted inhibition curve with a large enough effect in the repeat runs; inconclusive = weak or mixed curves; inactive = flat fitted curve, though single readings scatter.
Classes used: Yes = active, No = inactive

CC(N)CN (configuration not stated) : No
CCCCCCCCCCCC(=O)[O][Sn]([CH2]CCC)([CH2]CCC)[O]C(=O)CCCCCCCCCCC : No
CC1(C)C2=CCCC(C)(C)[C@]23CC[C@H]1C3 : No
Cc1ccc(S(=O)(=O)NC2CCCCC2)cc1 : No
CCCCCCOC(=O)CCCCCCCC(=O)OCCCCCC : No
CCOC(=O)N1CCC(n2c(=O)[nH]c3cc(Cl)ccc32)CC1 : No
CN(C(=O)C(Cl)Cl)c1ccc(OC(=O)c2ccco2)cc1 : No
C[Si]1(C)O[Si](C)(C)O[Si](C)(C)O1 : No
CCCOC(=O)c1ccc(N)cc1 : No
ON(Cc1ccccc1)Cc1ccccc1 : No
CCCCC(CC)CNCC(CC)CCCC (configuration not stated) : No
Cc1nc2ccccn2c(=O)c1CCN1CCC(C(=O)c2ccc(F)cc2)CC1 : Yes
COC(OC)(C(=O)c1ccccc1)c1ccccc1 : No
COC(=O)CC(=O)C(C)(C)C : No
CC1CC(O)CC(C)(C)C1 (configuration not stated) : No
Cc1ccnc2ccccc12 : No
Cc1cc(O)c(C(C)C)cc1Cl : No
CN(C)C(=O)Nc1ccc(Oc2ccc(Cl)cc2)cc1 : No
CCCOC(=O)c1ccc(C(=O)OCCC)nc1 : No
NC(=O)Cn1c(=O)cc(CCN2CCN(c3nccc4sccc34)CC2)c2ccc(F)cc21 : No
CC(=O)OCC(=O)[C@H]1CC[C@H]2[C@@H]3CCC4=CC(=O)CC[C@]4(C)[C@H]3CC[C@]12C : No
CC1(C)O[C@@H]2C[C@H]3[C@@H]4CCC5=CC(=O)C=C[C@]5(C)[C@H]4[C@@H](O)C[C@]3(C)[C@]2(C(=O)CO)O1 : No
Cc1cc(OI)c(C(C)C)cc1-c1cc(C(C)C)c(OI)cc1C : No
COc1cc2[nH]c(=O)[nH]c(=O)c2cc1OC : No
Nc1ccc(S(=O)(=O)O)cc1 : No
CCCCCCCCCOC(C)=O : No
CCOC(=O)c1ccccc1C : No
